# Selectivity Index (SI) per entry
System: mouse peritoneal macrophages (MPM)
assay_explanation: Cytotoxicity on mouse peritoneal macrophages (MTT reduction)
Assay type: cell-based
assay_context: IC50 MPM/IC50 axenic amastigotes
I'd appreciate a reply containing only the number, no unit.

Use these answered entries as a reference point.
Give its Selectivity Index (SI) value. Item: CCOC(=O)NC1=C(Cl)C(=O)c2ccccc2C1=O [Compound 1]
20.6

What about this compound? COC(=O)NC1=CC(=O)c2ccccc2C1=O [Compound 16]
2.2

And CC(C)(C)NC1=C(Cl)C(=O)c2ccccc2C1=O [Compound 8] ?
1.0

Next up: COC(=O)NC1=C(Cl)C(=O)c2ccccc2C1=O [MBC-132]
5.1

# iterate: CCOC(=O)NC1=CC(=O)c2ccccc2C1=O [Compound 17, Ethyl-(1,4-naphthoquinone-2-yl)carbamate]
2.5

Another compound to check: COc1ccc(COC(=O)NC2=C(Cl)C(=O)c3ccccc3C2=O)cc1 [Compound 4]
2.0

Consider now this further compound.
Can you share its Selectivity Index (SI)? I mean this compound: CC(C)(C)NC(=O)NC1=C(Cl)C(=O)c2ccccc2C1=O [Compound 14]
0.6
